# Test system: sheep red blood cells;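 note: hemolysis expressed in % from supernatant absorbance, with PBS-treated cells as 0% baseline and melittin as 100%, peptide mixed 1:1 with an 8% v/v erythrocyte suspension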
# Measurement Conditions: 150 μg/mL peptide; sheep red blood cells in PBS, 37°C, 1 h, OD576, relative to melittin; mean ± SD, three repeats
Where a SMILES comes first, the peptide text is derived from it.
This section presents compounds with their documented Hemolytic rate, 150 μg/mL values.
Write the number in % without appending the unit.

Q: Which Hemolytic rate, 150 μg/mL value belongs to CC[C@H](C)[C@H](NC(=O)[C@H](CCCNC(=N)N)NC(=O)[C@H](CCCNC(=N)N)NC(=O)[C@H](Cc1ccccc1)NC(=O)[C@H](CC(C)C)NC(=O)[C@H](CCCNC(=N)N)NC(=O)[C@H](N)CCCNC(=N)N)C(=O)N[C@@H](CC(C)C)C(=O)N[C@@H](CCCNC(=N)N)C(=O)N[C@@H](Cc1c[nH]c2ccccc12)C(=O)N[C@@H](CC(C)C)C(N)=O [RW-BP100-1D] (HELM PEPTIDE1{[dR].R.L.F.R.R.I.L.R.W.L.[am]}$$$$V2.0) ?
Ans: 39.81

Q: Which Hemolytic rate, 150 μg/mL value belongs to CC[C@H](C)[C@H](NC(=O)[C@H](CCCNC(=N)N)NC(=O)[C@H](CCCNC(=N)N)NC(=O)[C@H](Cc1ccccc1)NC(=O)[C@H](CC(C)C)NC(=O)[C@H](CCCNC(=N)N)NC(=O)[C@@H](N)CCCNC(=N)N)C(=O)N[C@@H](CC(C)C)C(=O)N[C@@H](CCCNC(=N)N)C(=O)N[C@@H](Cc1c[nH]c2ccccc12)C(=O)N[C@H](CC(C)C)C(N)=O [RW-BP100-11D] (HELM PEPTIDE1{R.R.L.F.R.R.I.L.R.W.[dL].[am]}$$$$V2.0) ?
Ans: 17.36

Q: Which Hemolytic rate, 150 μg/mL value belongs to CC[C@H](C)[C@H](NC(=O)[C@H](CCCNC(=N)N)NC(=O)[C@H](CCCNC(=N)N)NC(=O)[C@H](Cc1ccccc1)NC(=O)[C@H](CC(C)C)NC(=O)[C@H](CCCNC(=N)N)NC(=O)[C@@H](N)CCCNC(=N)N)C(=O)N[C@H](CC(C)C)C(=O)N[C@@H](CCCNC(=N)N)C(=O)N[C@@H](Cc1c[nH]c2ccccc12)C(=O)N[C@@H](CC(C)C)C(N)=O [RW-BP100-8D] (HELM PEPTIDE1{R.R.L.F.R.R.I.[dL].R.W.L.[am]}$$$$V2.0) ?
Ans: 26.19

Q: Which Hemolytic rate, 150 μg/mL value belongs to CC[C@H](C)[C@H](NC(=O)[C@H](CCCNC(=N)N)NC(=O)[C@H](CCCNC(=N)N)NC(=O)[C@H](Cc1ccccc1)NC(=O)[C@@H](CC(C)C)NC(=O)[C@H](CCCNC(=N)N)NC(=O)[C@@H](N)CCCNC(=N)N)C(=O)N[C@@H](CC(C)C)C(=O)N[C@@H](CCCNC(=N)N)C(=O)N[C@@H](Cc1c[nH]c2ccccc12)C(=O)N[C@@H](CC(C)C)C(N)=O [RW-BP100-3D] (HELM PEPTIDE1{R.R.[dL].F.R.R.I.L.R.W.L.[am]}$$$$V2.0) ?
Ans: 38.13
